- system.tested: SOST; also: test concentration or dose not given here
- assay.explanation: reporter assay of Huesken 2005
- cond: siRNA
Oligonucleotides are given in HELM: sugar(base)linkage, 5' to 3'; d 2'-deoxyribose, r ribose, m 2'-O-methylribose, p phosphate. ss, as = sense and antisense strand
recorded.endpoint: normalised inhibition (eCFP-eYFP dual reporter) (%)

substance	units.label	numeric.readout
RNA1{r(A)p.r(G)p.r(G)p.r(U)p.r(G)p.r(C)p.r(G)p.r(C)p.r(C)p.r(U)p.r(G)p.r(G)p.r(U)p.r(G)p.r(G)p.r(C)p.r(C)p.r(U)p.r(C)p.d(T)p.d(T)}|RNA2{r(G)p.r(A)p.r(G)p.r(G)p.r(C)p.r(C)p.r(A)p.r(C)p.r(C)p.r(A)p.r(G)p.r(G)p.r(C)p.r(G)p.r(C)p.r(A)p.r(C)p.r(C)p.r(U)p.d(T)p.d(G)}$$$RNA1{StrandType:ss}|RNA2{StrandType:as}$	%	71.2
RNA1{r(U)p.r(C)p.r(A)p.r(A)p.r(G)p.r(G)p.r(A)p.r(C)p.r(U)p.r(U)p.r(C)p.r(G)p.r(G)p.r(G)p.r(A)p.r(C)p.r(C)p.r(G)p.r(A)p.d(T)p.d(T)}|RNA2{r(U)p.r(C)p.r(G)p.r(G)p.r(U)p.r(C)p.r(C)p.r(C)p.r(G)p.r(A)p.r(A)p.r(G)p.r(U)p.r(C)p.r(C)p.r(U)p.r(U)p.r(G)p.r(A)p.d(G)p.d(C)}$$$RNA1{StrandType:ss}|RNA2{StrandType:as}$	%	61.3
RNA1{r(C)p.r(G)p.r(U)p.r(G)p.r(U)p.r(A)p.r(G)p.r(U)p.r(G)p.r(G)p.r(A)p.r(G)p.r(G)p.r(G)p.r(C)p.r(C)p.r(A)p.r(G)p.r(G)p.d(T)p.d(T)}|RNA2{r(C)p.r(C)p.r(U)p.r(G)p.r(G)p.r(C)p.r(C)p.r(C)p.r(U)p.r(C)p.r(C)p.r(A)p.r(C)p.r(U)p.r(A)p.r(C)p.r(A)p.r(C)p.r(G)p.d(G)p.d(A)}$$$RNA1{StrandType:ss}|RNA2{StrandType:as}$	%	60.7
RNA1{r(A)p.r(A)p.r(G)p.r(G)p.r(A)p.r(C)p.r(U)p.r(U)p.r(C)p.r(G)p.r(G)p.r(G)p.r(A)p.r(C)p.r(C)p.r(G)p.r(A)p.r(G)p.r(G)p.d(T)p.d(T)}|RNA2{r(C)p.r(C)p.r(U)p.r(C)p.r(G)p.r(G)p.r(U)p.r(C)p.r(C)p.r(C)p.r(G)p.r(A)p.r(A)p.r(G)p.r(U)p.r(C)p.r(C)p.r(U)p.r(U)p.d(G)p.d(A)}$$$RNA1{StrandType:ss}|RNA2{StrandType:as}$	%	58.7
RNA1{r(C)p.r(C)p.r(G)p.r(C)p.r(G)p.r(A)p.r(G)p.r(C)p.r(U)p.r(G)p.r(C)p.r(A)p.r(C)p.r(U)p.r(U)p.r(C)p.r(A)p.r(C)p.r(C)p.d(T)p.d(T)}|RNA2{r(G)p.r(G)p.r(U)p.r(G)p.r(A)p.r(A)p.r(G)p.r(U)p.r(G)p.r(C)p.r(A)p.r(G)p.r(C)p.r(U)p.r(C)p.r(G)p.r(C)p.r(G)p.r(G)p.d(C)p.d(A)}$$$RNA1{StrandType:ss}|RNA2{StrandType:as}$	%	66.8
